# assay_explanation: solubility in different pH buffer solutions (HPLC)
# Format: physicochemical
# test_context: buffer solution, pH 7.4, aqueous buffer, thermodynamic from solid, buffer pH7.4, 300 rpm, read-out: Concentration (solubility)
recorded_metric: solubility at 24 h (µg/mL)
Give the value, in units of µg/mL, as a plain number.

Query: Which solubility at 24 h value is on record for O=c1[nH]c2cccccc-2c1-c1nc2ccc(N3CCN(CCCF)CC3)cc2[nH]1 [monohydrate form of Formula I] ?
Response: 2.4

----------
# assay_explanation: solubility in different pH buffer solutions (HPLC)
# Assay type: physicochemical
# test_context: buffer solution, pH 6.8, aqueous buffer, thermodynamic from solid, buffer pH6.8, 300 rpm, read-out: Concentration (solubility)
recorded_metric: solubility at 24 h (µg/mL)
Give the value, in units of µg/mL, as a plain number.

Query: Which solubility at 24 h value is on record for O=c1[nH]c2cccccc-2c1-c1nc2ccc(N3CCN(CCCF)CC3)cc2[nH]1 [monohydrate form of Formula I] ?
Response: 3.7
